Test system: MALME-3M melanoma
Assay: NCI tumour cell line growth inhibition, 48 h
Everything with TGI lower than 9 µM is class 0; everything else, including exactly 9 µM, is class 1.

Example entries and their recorded answers appear below.
Qu. Decide: is the reported value of TGI for COc1cc2cc3c4c(cc(OC)c(OC)c4c2cc1OC)CCN3C(=O)OCCN1CCNCC1 equal to or greater than 9 µM?
Ans. class 1

Qu. Now consider CCn1c(-c2nonc2N)nc2c(C#CC(C)(C)O)nc(OC[C@H](N)c3ccccc3)cc21 and answer again.
Ans. class 1

Qu. Here is the next compound: COc1cc(C(=O)n2c3ccc(Br)cc3c3nc4ccccc4nc32)cc(OC)c1OC
Ans. class 1

Qu. Input CCOc1cc2c(OCc3ccccc3)cc3c4cc(OC)c(OC)cc4c[n+](C)c3c2cc1OC
Ans. class 0

Qu. COc1ccccc1/C(=N\OCCC(=O)O)c1cccs1 ?
Ans. class 1

Qu. Then what about the compound Cc1cc(N)c(C)c2c1[nH]c1ccc(O)cc12 ?
Ans. class 1

Qu. Then Cc1nn(-c2ccccc2)c2nc(N3CCOCC3)nnc12 ?
Ans. class 1

Qu. Further, for CCOC(=O)C1=C(C)N(Cc2ccc(Cl)cc2Cl)C2(O)C=CC(=O)C3C(=O)N(c4ccccc4)C(=O)C132 (centres undefined) ?
Ans. class 0

Kindly consider the entry below.
Qu. Is it the case that CC(C)(C)[Si](C)(C)OCC1OC(n2ccc(N)nc2=O)C(O[Si](C)(C)C(C)(C)C)C1O[Si](C)(C)C(C)(C)C (centres undefined) has TGI reaching or exceeding 9 µM?
Ans. class 0

----------
Tested on: HT29 colon
Test: NCI tumour cell line growth inhibition, 48 h; in the data active = GI50 below about 0.43 µM; inactive = the rest
Please reply with one of these outcomes: active, inactive

Qu. Could you please tell me the result logged for [Cl][Hg][c]1cc(Br)cc(Br)c1 in this assay?
Ans. inactive

Qu. Let us now turn to CC(C)=CC/C=C(/C)[C@H]1CC[C@]2(C)[C@@H]1CC[C@@H]1[C@@]3(C)CCCNC(C)(C)[C@@H]3CC[C@]12C
Ans. inactive

Qu. Similarly, O=C1NC(=O)C(c2cnc3ccccn23)=C1c1cn2c3c(cc(F)cc13)CN(C(=O)N1CCCCC1)CC2 ?
Ans. inactive

Qu. Next record, please: N#Cc1c(NN)n(C2OC(CO)C(O)C2O)c2ncnc(N)c12 (stereo unspecified)
Ans. active

Qu. Similarly, COc1cc(N(CCC#N)CCC#N)ccc1/C(N=Nc1ccc([N+](=O)[O-])cc1)=N/NC(=O)c1cc(Br)ccc1O ?
Ans. inactive

# next compound below
Qu. Assay outcome for CC(C)CCN1c2nc(Nc3cc(F)c(O)c(F)c3)ncc2N(C)C(=O)C1C (stereo unspecified) : what was it?
Ans. inactive

----------
Tested on: RPMI-8226 leukemia
Experiment: NCI tumour cell line growth inhibition, 48 h; in the data active = GI50 below about 0.43 µM; inactive = the rest
Pick from TRUE for active, FALSE for inactive when you respond.

Example entries and their recorded answers appear below.
Qu. What did the test return for O=C(Nc1nc2ccc(C(F)(F)F)cc2s1)c1cc(Cl)ccc1O ?
Ans. TRUE

Qu. Moving on to COc1cnc2c(c1)C(=O)c1c-2n(CCCNC(C)C)c(=O)c2cc(Cl)ccc12
Ans. FALSE

Qu. Now the compound N#CC(=C1C=CC(=NO)C=C1)c1ccccc1
Ans. TRUE

Qu. Try O=C1/C(=C/c2ccc(Br)cc2)COc2ccc(O)c(O)c21 next.
Ans. TRUE

Qu. Moving on to CCCCCCCCCCCCOC1C(C(COC2OC(C3COC(C)(C)O3)C3OC(C)(C)OC23)NC(=O)Nc2ccc(C(=O)O)cc2)OC2OC(C)(C)OC21 (configuration not stated)
Ans. FALSE

Qu. And then O=c1c2sc(=S)n(-c3ccc(F)cc3)c2ncn1Cc1ccc(F)cc1F , what is it?
Ans. FALSE

Qu. Here is the next compound: C=C(CNCc1ccccc1)c1ccc(C(=O)Nc2ccccc2N)cc1
Ans. FALSE

Qu. Follow-up entry: C=C1C(=O)O[C@@H]2C[C@@H]1CC/C(C)=C/CC/C(C)=C/CC[C@@]2(C)O
Ans. FALSE

***
Qu. Hey, what did the test say about O=C(Cc1ccc(/C=C/C(=O)c2ncc[nH]2)cc1)Nc1cc(F)c(F)c(F)c1 ?
Ans. FALSE

Qu. Now the same for CCC(C)n1ncn(-c2ccc(N3CCN(c4ccc(OCC5COC(Cn6cncn6)(c6ccc(Cl)cc6Cl)O5)cc4)CC3)cc2)c1=O (configuration not stated)
Ans. FALSE

Qu. Next entry: Cc1ccc(C)c(C2=C(c3cn(C)c4ccccc34)C(=O)NC2=O)c1
Ans. FALSE

Qu. Note, next up: CC(C)CCN1c2nc(Nc3cc(F)c(O)c(F)c3)ncc2N(C)C(=O)C1C (configuration not stated)
Ans. FALSE
